Entries and their relative binding ratio (IC50 of standard peptide / IC50 of test peptide)
- assay.target: HLA-A*1101 (purified HLA class I molecule) (human)
measured.endpoint: relative binding ratio (IC50 of standard peptide / IC50 of test peptide)

[[record]]
binder = "LTEVFEFAFK (modifications not checked) [HPV18 E6 41-50 peptide …]"
recorded_value = 0.036

[[record]]
binder = "RFHNIAGHYR (modifications not checked) [HPV18 E6 126-135 peptide …]"
recorded_value = 0.0057

[[record]]
binder = "RFHNIAGHY (modifications not checked) [HPV18 E6 126-134 peptide …]"
recorded_value = 0.0002

